Provenance of the data: PubChem BioAssay

assayComment: growth inhibition of DIPG glioma cells, dose response, cell-based, JHH-DIPG-1, MIPE4.0, CellTiter-Glo, qHTS (AID 1347062);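 as to AC50: cells exposed to compound for two days before readout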
recordedConditions: JHH-DIPG-1 viability, CellTiter-Glo ATP luminescence
Results filed as inconclusive are left out. Activity calls are given as the source filed them. The limit is not given here; nearly all actives have AC50 up to about 27 µM. Numbered stars: 1 amine (or outer) side, 2 acyl side, 3 side chain; on linkers, the order of the positions; unused ones are H or OH. Bridge positions count the residues as written; N and C are the ends. Square brackets hold non-standard residues; d marks the D form. Peptide text beside a SMILES is read from it. I, II: the chains in the order shown. Actinocin(9to1) = Cc1c2oc3c(C)ccc(C(=O)[*:1])c3nc-2c(C(=O)[*:2])c(N)c1=O; NMeV = CN[CH](C(=O)O)C(C)C; Sar = CNCC(=O)O
Labels: active, inactive

1) O=C1C(c2c(O)[nH]c3ccccc23)=Nc2ccccc21: inactive
2) COc1cc2nccc(Oc3ccc(NC(=O)Nc4ccc(F)cc4F)c(F)c3)c2cc1OC: inactive
3) FC(F)(F)c1ccc(/C=C/c2nc(COc3ccc(CCCCn4ccnn4)cc3)co2)cc1: inactive
4) N[C@@H](CC(=O)N1CCn2c(nnc2C(F)(F)F)C1)Cc1cc(F)c(F)cc1F: inactive
5) O=C(c1ccc(Nc2nccc(-c3cc4ccccc4s3)n2)cc1)N1CCC(N2CCCC2)CC1: active
6) C[C@@H](N)C1CCC(C(=O)Nc2ccncc2)CC1 (stereo partly specified): inactive
7) O=C(O)Cc1cccc(OCCCN(Cc2cccc(C(F)(F)F)c2Cl)CC(c2ccccc2)c2ccccc2)c1: inactive
8) CC(C)[C@H](CO)Nc1nc(Nc2cccc(Cl)c2)c2ncn(C(C)C)c2n1: active
9) O=c1[nH]c(=O)n(C2CCCO2)cc1F (stereo unspecified): inactive
10) NC(=O)c1ccc2[nH]ccc2c1: inactive
11) Cc1c2oc3c(C)ccc(C(=O)NC4C(=O)NC(C(C)C)C(=O)N5CCCC5C(=O)N(C)CC(=O)N(C)C(C(C)C)C(=O)OC4C)c3nc-2c(C(=O)NC2C(=O)NC(C(C)C)C(=O)N3CCCC3C(=O)N(C)CC(=O)N(C)C(C(C)C)C(=O)OC2C)c(N)c1=O (stereo unspecified) (I: TVP[Sar][NMeV] / II: TVP[Sar][NMeV]; ester I:1-I:C, II:1-II:C; linker I:N-II:N via Actinocin(9to1); configuration not given here): inactive

###

assayComment: inhibitors of polyQ protein aggregation (AID 1604)
recordedConditions: polyglutamine-induced protein aggregation inhibition assay; stronger effect = higher value; concentration not given here
Overview of recorded inhibition of aggregation for various compounds
assayReadout: inhibition of aggregation (%)

1. C[C@]12CCC(=O)C=C1CCC1C2[C@@H](O)C[C@@]2(C)C1CC[C@]2(O)C(=O)CO (stereo not given in full): 63.4
2. CCC[C@@H]1C[C@@H](C(=O)N[C@H]([C@H]2O[C@H](SC)[C@H](O)[C@@H](O)[C@H]2O)[C@H](C)O)N(C)C1: 67.6
3. Cc1onc(-c2ccccc2)c1C(=O)NC1C(=O)N2[C@@H]1SC(C)(C)[C@@H]2C(=O)O (stereo not given in full): -11.1
4. NC(Cc1ccc(F)cc1)C(=O)O (stereo not given): 75
5. CC(C)(C)NC[C@@H](O)COc1nsnc1N1CCOCC1: -23.4
6. CCCCC[C@H](CC(=O)NO)C(=O)N[C@H](C(=O)N1CCC[C@H]1CO)C(C)C: 14.3
7. CC(=O)O[C@]1(C(C)=O)CCC2C3C=C(Cl)C4=CC(=O)[C@@H]5C[C@@H]5[C@]4(C)C3CC[C@@]21C (stereo not given in full): 61
8. CN1C2CCC1CC(OC(c1ccccc1)c1ccccc1)C2 (stereo not given): 62
9. CN(C)CCCO[C@H]1[C@@H](C(O)CO)OC2OC(C)(C)O[C@@H]21 (stereo not given in full): 85.9
10. NC(=O)c1cc[n+](CC2=C(C(=O)O)N3C(=O)C(NC(=O)C(c4ccccc4)S(=O)(=O)[O-])C3SC2)cc1 (stereo not given): 24.1
11. CC(=O)Oc1ccc2c(c1)CCC1C2CC[C@@]2(C)C1CC[C@@H]2OC(C)=O (stereo not given in full): 65.2
12. CC(=O)OCC(=O)[C@H]1CCC2C3CCC4=CC(=O)CC[C@]4(C)C3CC[C@@]21C (stereo not given in full): 63.5
13. CN[C@@H]1[C@H](OC2[C@H](O[C@H]3[C@H](O)[C@@H](O)[C@H](N=C(N)N)[C@@H](O)[C@@H]3N=C(N)N)O[C@@H](C)[C@]2(O)C=O)O[C@@H](CO)[C@H](O)[C@H]1O (stereo not given in full): 65.1
14. CO/N=C(/C(=O)NC1C(=O)N2C(C(=O)O)=C(COC(N)=O)CSC12)c1ccco1 (stereo not given): 28.8
15. CC(C)C[C@@H](NC(=O)OCC1c2ccccc2-c2ccccc21)C(=O)O: -14.3
16. CCCCCCCCCCCCC[N+](C)(C)Cc1ccccc1: 25
17. CO[C@@H]1[C@@H](O[C@@H]2O[C@H](C)[C@@H](O[C@H]3C[C@@](C)(O)[C@H](O)[C@H](C)O3)[C@H](N(C)C)[C@H]2O)[C@@H](CC=O)C[C@@H](C)[C@@H](O[C@H]2CC[C@H](N(C)C)[C@@H](C)O2)/C=C/C=C/C[C@H](C)OC(=O)C[C@H]1O: 50.8
18. C[C@]12CCC(=O)C=C1CCC1C2[C@@H](O)C[C@@]2(C)C1CC[C@]2(O)C(=O)COC(=O)CCC(=O)O (stereo not given in full): 37.2
19. C[C@]12CCC3c4ccc(O)cc4CCC3C1CC[C@@H]2OC(=O)CCC1CCCC1 (stereo not given in full): 94.4
20. CC12CCC3C(=CCc4cc(O)ccc43)C1CCC2=O (stereo not given): 84.7
21. OC(c1cc(C(F)(F)F)nc2c(C(F)(F)F)cccc12)C1CCCCN1 (stereo not given): -19.6
22. C#C[C@]1(O)CCC2C3CCc4cc(O)ccc4C3CC[C@@]21C (stereo not given in full): 38.1
23. NC(COCc1ccccc1)C(=O)O (stereo not given): 85.8
24. CC(=O)OCC(=O)[C@@]1(O)[C@H](OC(C)=O)CC2C3CCC4=CC(=O)C=C[C@]4(C)[C@@]3(F)[C@@H](O)C[C@@]21C (stereo not given in full): 89.7
25. C[N+]1(C)C2CC[C@H]1CC(OC(=O)C(O)c1ccccc1)C2 (stereo not given in full): 65.1
